tested on: U2OS; experiment: Multiplex assay against U2OS; type: toxicity, cell-based; settings: human, 24 h, 10 µM, compound concentration 10 uM, replicate 1
observed_property: Population Healthy Nuclei (%)

>  <compound>
COc1cc(-n2cnc3cc(-c4ccc(Cl)cc4)sc3c2=O)ccc1OCCN1CCCC1

>  <numeric_value>
3

$$$$
>  <compound>
NC(=O)Nc1cc(-c2cccc(F)c2)sc1C(=O)N[C@H]1CCCNC1 [AZD-7762]

>  <numeric_value>
7

$$$$
>  <compound>
COc1cccc([C@@H](C)NCCCc2ccccc2Cl)c1.Cl [TECALCET HYDROCHLORIDE]

>  <numeric_value>
63

$$$$
>  <compound>
Cc1[nH]c(/C=C2\C(=O)Nc3ccc(S(=O)(=O)N(C)c4cccc(Cl)c4)cc32)c(C)c1C(=O)N1CCN(C)CC1

>  <numeric_value>
68

$$$$
>  <compound>
Cc1nc(-c2ccc(-c3ccc(C(=O)N4CCc5cc6c(cc54)C4(CCN(C)CC4)CO6)cc3)c(C)c2)no1 [SB-224289]

>  <numeric_value>
51

$$$$
>  <compound>
COc1cc2nccc(Oc3ccc(NC(=O)Nc4cc(C)on4)c(Cl)c3)c2cc1OC.O

>  <numeric_value>
42

$$$$
>  <compound>
COc1ncc(-c2ccc3nccc(-c4ccnnc4)c3c2)cc1NS(=O)(=O)c1ccc(F)cc1F [OMIPALISIB]

>  <numeric_value>
25

$$$$
>  <compound>
Cc1nc(Nc2n[nH]c3c2CN(C(=O)N[C@H](CN(C)C)c2ccccc2)C3(C)C)c2sccc2n1 [PF-03758309]

>  <numeric_value>
38

$$$$
>  <compound>
O=C1NCN(c2ccccc2)C12CCN(CCCOc1ccc(F)cc1)CC2 [SPIRAMIDE]

>  <numeric_value>
32

$$$$
>  <compound>
CNCc1ccc(-c2cc(-c3nc(-c4ccc(S(=O)(=O)C(C)C)cc4)cnc3N)on2)cc1 [BERZOSERTIB]

>  <numeric_value>
10

$$$$
>  <compound>
CN1CCC[C@@H]1CCO[C@](C)(c1ccccc1)c1ccc(Cl)cc1.O=C(O)/C=C/C(=O)O [CLEMASTINE FUMARATE]

>  <numeric_value>
35

$$$$
>  <compound>
CNc1nc(NCc2ccc(NS(C)(=O)=O)cc2Cl)cc(-c2ccccn2)n1

>  <numeric_value>
67

$$$$
>  <compound>
CC[C@H](C)C(=O)O[C@H]1C[C@@H](C)C=C2C=C[C@H](C)[C@H](CC[C@@H]3C[C@@H](O)CC(=O)O3)[C@H]21 [LOVASTATIN]

>  <numeric_value>
76

$$$$
>  <compound>
Cc1cc(C)cc(-c2cnc3cc(Cl)c(-c4cccc(O)c4)cc3c2OCCCN)c1

>  <numeric_value>
2

$$$$
>  <compound>
CN(C)C(=O)N[C@H]1CC[C@H](CCN2CCN(c3cccc(Cl)c3Cl)CC2)CC1.Cl [CARIPRAZINE HYDROCHLORIDE]

>  <numeric_value>
57

$$$$
>  <compound>
CN1CCN(c2ccc(OC(F)(F)F)c(Nc3ncc4c(n3)-c3c(c(C(N)=O)nn3CCO)CC4)c2)CC1 [ONVANSERTIB]

>  <numeric_value>
79

$$$$
>  <compound>
CC(C)(O)CNc1ncc(-c2ccnc(Nc3ccnc(Cl)c3)n2)c(CC2CC2)n1

>  <numeric_value>
22

$$$$
>  <compound>
Cc1nc(-c2cn3c(n2)-c2ccc(-c4cnn(C(C)(C)C(N)=O)c4)cc2OCC3)n(C(C)C)n1 [TASELISIB]

>  <numeric_value>
91

$$$$
>  <compound>
OC1(c2ccc(Cl)cc2)CCN(Cc2c[nH]c3ccccc23)CC1

>  <numeric_value>
22

$$$$
>  <compound>
C=CC(=O)Nc1cccc(C(=O)Nc2ccc(Nc3cc(-c4[nH]c(SC)nc4C)ccn3)cc2)c1

>  <numeric_value>
83

$$$$
>  <compound>
CC(C)NCC(O)COc1ccc(CCOCC2CC2)cc1.Cl (centres undefined) [BETAXOLOL HYDROCHLORIDE]

>  <numeric_value>
70

$$$$
>  <compound>
CN(C)C(=O)/C(C#N)=C/c1ccc(-c2nc3cnc4[nH]ccc4c3n2C2CCCCC2)o1

>  <numeric_value>
56

$$$$
>  <compound>
CN1CCCC(n2nc(Cc3ccc(Cl)cc3)c3ccccc3c2=O)CC1.Cl (centres undefined) [AZELASTINE HYDROCHLORIDE]

>  <numeric_value>
46

$$$$
>  <compound>
C[C@@H](NCCCc1cccc(C(F)(F)F)c1)c1cccc2ccccc12.Cl [CINACALCET HYDROCHLORIDE]

>  <numeric_value>
51

$$$$

Cited source: ChEMBL document CHEMBL4689842
